Tested on: HCT116
Experiment: MTT antiproliferative assay, HCT116
Assay type: cell-based, human
Settings: Homo sapiens, HCT-116; 100 μM, 48 h, MTT; read-out: % Growth Inhibition at 100 μM HCT116
Below: a set of entries, each annotated with reported inhibition at 100 µM.
recorded.metric: inhibition at 100 µM (%)

> print(dat)
                                    molecule  measurement
 1  COc1cc(-n2cc(/C=C3\CC4C5CC=C6CC(O)CCC6(C)C5CCC4(C)C3=O)nn2)cc(OC)c1OC (stereo not shown)         59.2
 2  Cc1cccc(-n2cc(/C=C3\CC4C5CC=C6CC(O)CCC6(C)C5CCC4(C)C3=O)nn2)c1 (stereo not shown)         40.9
 3  CC12CCC3C(CC=C4CC(O)CCC43C)C1C/C(=C\c1cn(-c3ccc(F)cc3)nn1)C2=O (stereo not shown)         84.9
 4  CC12CCC3C(CC=C4CC(O)CCC43C)C1C/C(=C\c1cn(-c3cccc(F)c3)nn1)C2=O (stereo not shown)         78.3
 5  Cc1ccc(-n2cc(/C=C3\CC4C5CC=C6CC(O)CCC6(C)C5CCC4(C)C3=O)nn2)cc1 (stereo not shown)         76.5
 6  CC12CCC3C(CC=C4CC(O)CCC43C)C1C/C(=C\c1cn(-c3ccc(Cl)cc3)nn1)C2=O (stereo not shown)         78.7
 7  CC12CCC3C(CC=C4CC(O)CCC43C)C1C/C(=C\c1cn(-c3ccc(I)cc3)nn1)C2=O (stereo not shown)         65.5
 8  C[C@]12CC[C@H](O)CC1=CC[C@@H]1[C@@H]2CC[C@]2(C)C(=O)CC[C@@H]12 [DHEA, Dehydroepiandrosterone]         47.3
 9  CC12CCC3C(CC=C4CC(O)CCC43C)C1C/C(=C\c1cn(-c3ccccc3)nn1)C2=O (stereo not shown)         11.1
10  CC12CCC3C(CC=C4CC(O)CCC43C)C1C/C(=C\c1cn(-c3cccc(Cl)c3)nn1)C2=O (stereo not shown)         41.9
